Values from patent US7951836B2

# system: mGlyT-1b (Mus musculus)
# Construct: host or cells: Flp-in-CHO
# Sequence (P28571 1-651 isoform P28571-2): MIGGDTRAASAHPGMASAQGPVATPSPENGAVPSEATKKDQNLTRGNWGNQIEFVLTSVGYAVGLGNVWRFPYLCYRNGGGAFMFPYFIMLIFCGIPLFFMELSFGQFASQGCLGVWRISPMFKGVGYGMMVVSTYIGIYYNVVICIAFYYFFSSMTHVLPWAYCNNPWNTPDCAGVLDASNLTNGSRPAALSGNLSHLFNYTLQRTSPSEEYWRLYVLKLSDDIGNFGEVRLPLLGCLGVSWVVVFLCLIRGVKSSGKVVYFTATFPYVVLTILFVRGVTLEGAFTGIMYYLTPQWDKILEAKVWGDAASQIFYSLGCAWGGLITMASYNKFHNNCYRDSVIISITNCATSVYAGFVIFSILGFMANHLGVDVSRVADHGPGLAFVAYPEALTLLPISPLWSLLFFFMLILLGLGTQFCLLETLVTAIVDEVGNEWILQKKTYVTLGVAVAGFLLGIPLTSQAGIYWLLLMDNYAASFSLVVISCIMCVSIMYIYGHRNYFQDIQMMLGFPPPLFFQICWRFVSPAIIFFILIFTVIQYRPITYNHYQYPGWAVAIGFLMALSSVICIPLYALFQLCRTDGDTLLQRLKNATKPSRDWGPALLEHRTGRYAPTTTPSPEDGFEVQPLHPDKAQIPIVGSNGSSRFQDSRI
# experiment.description: Glycine uptake inhibition assay (mGlyT-1b)
# Type: cell-based
# Protocol: DMEM complete medium: Nutrient mixture F-12 (Gibco Life-technologies), fetal bovine serum (FBS) 5%, (Gibco life technologies), Penicillin/Streptomycin 1% (Gibco life technologies), Hygromycin 0.6 mg/ml (Gibco life technologies), Glutamine 1 mM Gibco life technologies) Uptake buffer (UB): 150 mM NaCl, 10 mM Hepes-Tris, pH 7.4, 1 mM CaCl2, 2.5 mM KCl, 2.5 mM MgSO4, 10 mM (+) D-glucose. Flp-inTM-CHO (Invitrogen Cat n° R758-07) cells stably transfected with mGlyT1b cDNA. […]
measure.name: pIC50
Scale explanation: pIC50 corresponds to minus log10 of a concentration expressed in moles per litre.

Returns the measured pIC50 for the input compound. Input: C[C@H](Oc1ccc(S(C)(=O)=O)cc1C(=O)N1CCC(COc2ccc(C#N)cc2)C1)C(F)(F)F (mixture of isomers) [Example 32]
6.68

Quick one: pIC50 for C[C@H](Oc1ccc(S(C)(=O)=O)cc1C(=O)N1CCC(COc2ccc(Cl)cc2)C1)C(F)(F)F (mixture of isomers) [Example 29] ?
6.70

----------
# system: mGlyT-1b (Mus musculus)
# Construct: host or cells: Flp-in-CHO
# experiment.description: Glycine uptake inhibition assay (mGlyT-1b)
# Assay type: cell-based
# condition.info: [3H]-glycine uptake in Flp-in-CHO cells stably transfected with mGlyT1b cDNA; 20 min preincubation at 22° C.; read-out: IC50 (μM) at GlyT-1
Rule: measured IC50 below 0.2 µM gets Criterion met; anything equal to or greater than 0.2 µM gets Criterion not met.

Hello, I'm reviewing records and need to know if IC50 of Cc1ccc(OCC2CCN(C(=O)c3cc(S(C)(=O)=O)ccc3O[C@@H](C)C(F)(F)F)C2)cc1 (mixture of isomers) [Example 30] is below 0.2 µM. Could you check?
Criterion not met

For this compound, is IC50 lower than 0.2 µM? C[C@H](Oc1ccc(S(C)(=O)=O)cc1C(=O)N1CCC(COc2ccc([N+](=O)[O-])cc2)C1)C(F)(F)F (mixture of isomers) [Example 33]
Criterion met

Check if IC50 falls below 0.2 µM for CS(=O)(=O)c1ccc(OCC2CCC2)c(C(=O)N2CCC(Cc3ccc(C(F)(F)F)cc3)C2)c1 (racemic) [Example 15] .
Criterion not met

In plain terms, does C[C@H](Oc1ccc(S(C)(=O)=O)cc1C(=O)N1CCC(COc2ccc(-c3ccccc3)cc2)C1)C(F)(F)F (mixture of isomers) [Example 31] come in under 0.2 µM for IC50?
Criterion not met

Is IC50 of C[C@H](Oc1ccc(S(C)(=O)=O)cc1C(=O)N1CCC(COc2ccc(Cl)c(Cl)c2)C1)C(F)(F)F (mixture of isomers) [Example 36] strictly below 0.2 µM?
Criterion met

Dear reviewer, please state whether COc1cccc(OCC2CCN(C(=O)c3cc(S(C)(=O)=O)ccc3O[C@@H](C)C(F)(F)F)C2)c1 (mixture of isomers) [Example 37] has IC50 strictly beneath 0.2 µM.
Criterion met

API: query returns whether the compound falls strictly under 0.2 µM in IC50. Query: CS(=O)(=O)c1ccc(OCC(F)(F)C(F)(F)F)c(C(=O)N2CCC(Cc3ccc(C(F)(F)F)cc3)C2)c1 (racemic) [Example 13]
Criterion met

Bench note: check whether C[C@H](Oc1ccc(S(C)(=O)=O)cc1C(=O)N1CCC(Cc2ccc(C(F)(F)F)cc2)C1)C(F)(F)F (mixture of isomers) [Example 11] shows IC50 below 0.2 µM
Criterion met

----------
Please respond with reported IC50 for every item in the list.
# system: mGlyT-1b (Mus musculus)
# Construct: host or cells: Flp-in-CHO
# Sequence (P28571 1-651 isoform P28571-2): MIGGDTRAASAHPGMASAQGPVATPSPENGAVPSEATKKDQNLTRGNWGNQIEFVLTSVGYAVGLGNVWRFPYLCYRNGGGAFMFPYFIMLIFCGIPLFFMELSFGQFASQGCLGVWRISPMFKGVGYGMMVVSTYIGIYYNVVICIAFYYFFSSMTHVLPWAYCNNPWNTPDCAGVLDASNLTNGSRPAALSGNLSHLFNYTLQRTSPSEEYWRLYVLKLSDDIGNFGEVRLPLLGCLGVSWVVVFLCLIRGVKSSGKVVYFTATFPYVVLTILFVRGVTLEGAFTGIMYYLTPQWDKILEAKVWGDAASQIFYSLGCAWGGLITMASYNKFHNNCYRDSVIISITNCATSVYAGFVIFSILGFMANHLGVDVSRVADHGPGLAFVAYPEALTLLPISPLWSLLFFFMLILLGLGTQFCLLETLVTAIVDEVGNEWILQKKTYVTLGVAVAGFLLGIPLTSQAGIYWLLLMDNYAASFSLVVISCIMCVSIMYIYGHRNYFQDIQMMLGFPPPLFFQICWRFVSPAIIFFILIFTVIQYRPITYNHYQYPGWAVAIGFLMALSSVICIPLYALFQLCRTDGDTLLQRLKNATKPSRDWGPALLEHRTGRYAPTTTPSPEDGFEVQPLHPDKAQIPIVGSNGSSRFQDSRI
# experiment.description: Glycine uptake inhibition assay (mGlyT-1b)
# Format: cell-based
# condition.info: [3H]-glycine uptake in Flp-in-CHO cells stably transfected with mGlyT1b cDNA; 20 min preincubation at 22° C.; read-out: IC50 (μM) at GlyT-1
Answer with the figure and its unit, nothing else.

May I ask what IC50 has been recorded for C[C@H](Oc1ccc(S(C)(=O)=O)cc1C(=O)N1CCC(COc2ccc(OC(F)(F)F)cc2)C1)C(F)(F)F (mixture of isomers) ?
0.13 µM

Looking for the measured IC50 of CS(=O)(=O)c1ccc(-c2ccc(F)cc2)c(C(=O)N2CCC(Cc3ccc(C(F)(F)F)cc3)C2)c1 (racemic) , can you help?
0.5 µM

Param item = C[C@H](Oc1ccc(S(C)(=O)=O)cc1C(=O)N1CCC(c2ccc(C(F)(F)F)cc2)C1)C(F)(F)F (mixture of isomers) ; retrieve measured IC50.
0.22 µM

Endpoint output: IC50 of CS(=O)(=O)c1ccc(OC2CCCC2)c(C(=O)N2CCC(Cc3ccc(C(F)(F)F)cc3)C2)c1 (racemic) . Value?
0.32 µM
